Where do these numbers come from? They come from patent US20250250357A1.

Known OD450 of a selection of binders
# STUDY SYSTEM: T1, human MSLN-FL-his protein (human, UniProt Q13421 296-580)
# T1 construct: Made in HEK293E cells, purified on nickel column; it is put last here; also called human MSLN full-length protein; hMSLN-FL-his; not shown: His tag
# T1 sequence (Q13421 other isoform, or with tags, fused parts or gaps): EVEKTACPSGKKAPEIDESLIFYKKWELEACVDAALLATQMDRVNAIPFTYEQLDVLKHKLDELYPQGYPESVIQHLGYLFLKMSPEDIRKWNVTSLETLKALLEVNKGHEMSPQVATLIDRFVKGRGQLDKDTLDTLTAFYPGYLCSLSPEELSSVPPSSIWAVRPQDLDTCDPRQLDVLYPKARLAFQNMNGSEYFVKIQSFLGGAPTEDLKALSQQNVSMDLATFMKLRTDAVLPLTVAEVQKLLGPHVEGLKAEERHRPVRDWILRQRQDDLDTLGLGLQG
# EXPERIMENT NOTES: ELISA on coated antigen, antibody 10 nM
Quick reminder: number only, in OD, skip the unit.

S009-F8-13.8 (antibody, human IgG1, kappa, V domains shown, Human-murine chimeric antibody, human IgG1 heavy and kappa light constant regions) VH: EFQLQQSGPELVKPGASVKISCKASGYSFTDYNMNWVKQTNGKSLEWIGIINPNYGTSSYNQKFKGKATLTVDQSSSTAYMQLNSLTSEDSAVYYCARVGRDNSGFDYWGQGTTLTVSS VL: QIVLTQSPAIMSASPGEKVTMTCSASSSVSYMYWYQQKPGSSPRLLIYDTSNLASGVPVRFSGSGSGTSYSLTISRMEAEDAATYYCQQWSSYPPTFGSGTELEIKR :: 2.34

[ask] # OD450 lookup, item S009-F8-33.12 (antibody, human IgG1, kappa, V domains shown, Human-murine chimeric antibody, human IgG1 heavy and kappa light constant regions) VH: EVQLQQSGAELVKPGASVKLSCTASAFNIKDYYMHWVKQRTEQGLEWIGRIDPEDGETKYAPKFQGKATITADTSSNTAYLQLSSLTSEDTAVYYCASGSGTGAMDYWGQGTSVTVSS VL: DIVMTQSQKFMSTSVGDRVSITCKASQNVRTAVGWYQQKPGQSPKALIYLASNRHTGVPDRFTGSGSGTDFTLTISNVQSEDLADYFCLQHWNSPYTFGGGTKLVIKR
[reply] 2.92
